tested on: lymphocytic leukemia P388; test: Lymphocytic Leukemia P388 Test; type: in vivo, BDF1 mice; settings: dose 0.75 mg/kg intraperitoneally on days 1, 5 and 9; ratio of survival time treated/control
Entries and their measured T/C × 100 (%) follow.
Give the value, in units of %, as a plain number.

INSERT INTO measurements (compound, measured_number) VALUES
  ('N[C@@H](COCc1ccccc1)C(=O)NCCNc1ccc(NCCNC(=O)[C@@H](N)COCc2ccccc2)c2c1C(=O)c1c(O)ccc(O)c1C2=O.O=C(O)C(F)(F)F.O=C(O)C(F)(F)F (relative stereo)', 195);

[ask] // returns reported T/C × 100 (%) for input CC(C)[C@H](N)C(=O)NCCNc1ccc(NCCNC(=O)[C@@H](N)C(C)C)c2c1C(=O)c1c(O)ccc(O)c1C2=O.Cl.Cl (relative stereo)
[reply] 185

[ask] Can you look up the measured T/C × 100 (%) of Br.Br.CC(C)C[C@H](NC(=O)CNC(=O)CN)C(=O)NCCNc1ccc(NCCNC(=O)[C@H](CC(C)C)NC(=O)CNC(=O)CN)c2c1C(=O)c1c(O)ccc(O)c1C2=O for me?
[reply] 220

[ask] Form field: reported T/C × 100 (%) of Br.Br.CC(C)C[C@H](N)C(=O)NCCNc1ccc(NCCNC(=O)[C@@H](N)CC(C)C)c2c1C(=O)c1c(O)ccc(O)c1C2=O (stereo in doubt)
[reply] 175

Hello, the source for this data is patent US4732970A, in case you need it.
